Read-out: HMG-CoA synthase (HMGCS2), HMGCS2 (gene 3158)
Test: CLD_HMGCS2_48hr: CellzDirect (CLD) Gene Expression Assay for HMG-CoA synthase (HMGCS2) at 48 hours (AID 2283711)
Results filed as inconclusive are left out. Activity calls are given as the source filed them. How the source made its calls: active means hit-call score of the fitted dose curve at least 0.9, where 1 is the maximum; inconclusive means response in the unintended direction; inactive means score below 0.9.
Valid outcomes are listed here; reply with one: active, inactive

Field: example entries. Status: answers known.
# input # fetch the recorded call for `CCNc1nc(Cl)nc(NC(C)(C)C#N)n1` here
# output inactive

# input Returns: the outcome recorded for `COc1cc(OC)nc(Sc2cccc(Cl)c2C(=O)O)n1` in this assay.
# output inactive

# input What was the test verdict on COP(=O)(OC)C(O)C(Cl)(Cl)Cl (centres undefined) ?
# output inactive

# input Just curious, what result did `CC(C)N(C(=O)SCC(Cl)=C(Cl)Cl)C(C)C` get here?
# output inactive

# input Entry `O=C(O)c1cc(Oc2ccc(C(F)(F)F)cc2Cl)ccc1[N+](=O)[O-]` : call = ?
# output active

# input Please indicate how the test categorized `COP(=O)(OC)SCn1c(=O)oc2cc(Cl)cnc21` .
# output inactive

# input What classification did `CC[C@H](C)[C@H]1O[C@]2(C=C[C@@H]1C)C[C@@H]1C[C@@H](C/C=C(\C)[C@@H](O[C@H]3C[C@H](OC)[C@@H](O[C@H]4C[C@H](OC)[C@@H](NC)[C@H](C)O4)[C@H](C)O3)[C@@H](C)/C=C/C=C3\CO[C@@H]4[C@H](O)C(C)=C[C@@H](C(=O)O1)[C@]34O)O2` end up with in this test?
# output inactive

# input Just curious, what result did CCCSP(=O)(OCC)Oc1ccc(Br)cc1Cl (centres undefined) get here?
# output inactive

***
# input Outcome? `CCCCOC(=O)[C@@H](C)Oc1ccc(Oc2ccc(C#N)cc2F)cc1`
# output inactive

====

Read-out: solute carrier (SLC10A1), SLC10A1 (gene 6554)
Assay: LTEA_HepaRG_SLC10A1: Life Technologies and Expression Analysis (LTEA) Assay for solute carrier (SLC10A1) using HepaRG (AID 2283657)
Conditions: mRNA level, 48 h; actives raise or lower the signal
Calls of active or inactive are those of the source. How the source made its calls: active means hit-call score of the fitted dose curve at least 0.9, where 1 is the maximum; inactive means score below 0.9.
Outcome (select one): 1.0 (active), 0.0 (inactive)

# input Per the records of this test, what outcome belongs to `CSc1nc(NC(C)C)nc(NC(C)C)n1` ?
# output 1.0

# input Hi, do you know how CCOP(=S)(Oc1cnc(C(C)(C)C)nc1)OC(C)C (configuration not stated) came out in this test?
# output 1.0

# input Lab log entry: CCOC(=O)CC(SP(=O)(OC)OC)C(=O)OCC (configuration not stated) — outcome as called in the assay?
# output 1.0

New cases:
# input Assay outcome for `CCOP(=S)(OCC)Oc1ccc2c(C)c(Cl)c(=O)oc2c1` : what was it?
# output 1.0

# input Which outcome did this test record for the molecule `CCc1cccc(CC)c1N(COC)C(=O)CCl` ?
# output 0.0

# input Outcome? CC(COc1ccc(Oc2ccccc2)cc1)Oc1ccccn1 (configuration not stated)
# output 1.0

# input // param item: `CC1(C(=O)Nc2ccc(O)c(Cl)c2Cl)CCCCC1` ; yields the recorded call
# output 0.0

====

Read-out: Alpha-fetoprotein (AFP) gene, AFP (gene 174)
Assay: LTEA_HepaRG_AFP: Life Technologies and Expression Analysis (LTEA) Assay for Alpha-fetoprotein (AFP) gene using HepaRG (AID 2283472)
Details: mRNA level, 48 h; actives raise or lower the signal
Calls of active or inactive are those of the source. The calls were made as follows: active = hit-call score of the fitted dose curve at least 0.9, where 1 is the maximum; inactive = score below 0.9.
The reply should be one of these categories: 1 for active, 0 for inactive

Consider the following illustrative entries.
# input Hello, I am checking results. What call was entered for `CN(C)NC(=O)CCC(=O)O` ?
# output 0

# input Per the assay record, what outcome was assigned to CCc1cccc(C)c1N(C(=O)CCl)C(C)COC (configuration not stated) ?
# output 1

# input Could you kindly confirm the outcome this assay logged for `CCOP(=O)(OCC)Oc1cc(C)nc(C(C)C)n1` ?
# output 0

# input Can you look up the reported call for `S=C1NCCN1` for me?
# output 0

# input Could you please tell me the result logged for `CCOP(=S)(OCC)Oc1ccc([N+](=O)[O-])cc1` in this assay?
# output 1

Continuing:
# input Identify the outcome logged in this assay for the molecule shown: FC(F)C(F)(F)OCC(Cn1cncn1)c1ccc(Cl)cc1Cl (configuration not stated)
# output 1

# input Assay result, entry C#CCC1=C(C)C(OC(=O)C2C(C=C(C)C)C2(C)C)CC1=O (configuration not stated) — outcome?
# output 1

# input Field: outcome | Entry: `CCCCSP(=O)(SCCCC)SCCCC`
# output 1
